assayed target: Fibroblast growth factor receptor 1 (Homo sapiens)
Sequence (P11362 22-822 limits assumed): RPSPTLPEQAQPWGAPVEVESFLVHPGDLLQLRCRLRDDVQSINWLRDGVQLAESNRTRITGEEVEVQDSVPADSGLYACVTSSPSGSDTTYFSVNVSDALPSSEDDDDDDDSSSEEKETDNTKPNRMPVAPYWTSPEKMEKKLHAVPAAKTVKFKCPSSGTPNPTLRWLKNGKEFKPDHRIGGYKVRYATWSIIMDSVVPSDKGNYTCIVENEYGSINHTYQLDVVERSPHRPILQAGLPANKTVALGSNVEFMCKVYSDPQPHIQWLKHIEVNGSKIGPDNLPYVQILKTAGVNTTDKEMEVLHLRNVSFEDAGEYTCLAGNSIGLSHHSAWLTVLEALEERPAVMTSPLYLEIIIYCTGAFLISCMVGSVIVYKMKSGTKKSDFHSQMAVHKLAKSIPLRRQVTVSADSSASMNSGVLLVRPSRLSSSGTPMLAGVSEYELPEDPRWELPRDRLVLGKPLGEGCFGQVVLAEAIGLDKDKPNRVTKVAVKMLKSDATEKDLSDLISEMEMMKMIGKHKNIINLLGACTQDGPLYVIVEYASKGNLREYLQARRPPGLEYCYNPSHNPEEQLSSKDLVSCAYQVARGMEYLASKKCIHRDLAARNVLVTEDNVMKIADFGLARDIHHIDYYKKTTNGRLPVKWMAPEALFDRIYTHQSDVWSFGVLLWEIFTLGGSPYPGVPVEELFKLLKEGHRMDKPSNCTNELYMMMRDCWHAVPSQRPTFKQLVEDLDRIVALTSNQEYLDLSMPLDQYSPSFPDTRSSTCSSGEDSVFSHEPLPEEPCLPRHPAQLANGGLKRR
Lab note - cut at 2 K for deltaTm: criterion met if strictly below, criterion not met if not.

> print(dat)
                                item.smiles              class
1  COc1cc(-c2cnc3nc2NCCCNS(=O)(=O)c2cc(ccc2O)N3)ccc1F      criterion met
2  Nc1cc(-c2cnc3nc2NCCCNS(=O)(=O)c2cccc(c2)N3)ccc1F  criterion not met
3  COCCOc1ccc2cc1S(=O)(=O)NCCCNc1nc(ncc1-c1ccc(F)c(OC)c1)N2  criterion not met
4  COC(=O)COc1ccc2cc1S(=O)(=O)NCCCNc1nc(ncc1-c1ccc(F)c(OC)c1)N2      criterion met

Problem: For O=S1(=O)NCCCNc2nc(ncc2-c2ccc(F)c(O)c2)Nc2cccc1c2 , is the recorded deltaTm below the cut-off of 2 K?
Solution: criterion not met

---

Measured deltaTm on UniProtKB O14976 follows.
Sequence (O14976 whole entry): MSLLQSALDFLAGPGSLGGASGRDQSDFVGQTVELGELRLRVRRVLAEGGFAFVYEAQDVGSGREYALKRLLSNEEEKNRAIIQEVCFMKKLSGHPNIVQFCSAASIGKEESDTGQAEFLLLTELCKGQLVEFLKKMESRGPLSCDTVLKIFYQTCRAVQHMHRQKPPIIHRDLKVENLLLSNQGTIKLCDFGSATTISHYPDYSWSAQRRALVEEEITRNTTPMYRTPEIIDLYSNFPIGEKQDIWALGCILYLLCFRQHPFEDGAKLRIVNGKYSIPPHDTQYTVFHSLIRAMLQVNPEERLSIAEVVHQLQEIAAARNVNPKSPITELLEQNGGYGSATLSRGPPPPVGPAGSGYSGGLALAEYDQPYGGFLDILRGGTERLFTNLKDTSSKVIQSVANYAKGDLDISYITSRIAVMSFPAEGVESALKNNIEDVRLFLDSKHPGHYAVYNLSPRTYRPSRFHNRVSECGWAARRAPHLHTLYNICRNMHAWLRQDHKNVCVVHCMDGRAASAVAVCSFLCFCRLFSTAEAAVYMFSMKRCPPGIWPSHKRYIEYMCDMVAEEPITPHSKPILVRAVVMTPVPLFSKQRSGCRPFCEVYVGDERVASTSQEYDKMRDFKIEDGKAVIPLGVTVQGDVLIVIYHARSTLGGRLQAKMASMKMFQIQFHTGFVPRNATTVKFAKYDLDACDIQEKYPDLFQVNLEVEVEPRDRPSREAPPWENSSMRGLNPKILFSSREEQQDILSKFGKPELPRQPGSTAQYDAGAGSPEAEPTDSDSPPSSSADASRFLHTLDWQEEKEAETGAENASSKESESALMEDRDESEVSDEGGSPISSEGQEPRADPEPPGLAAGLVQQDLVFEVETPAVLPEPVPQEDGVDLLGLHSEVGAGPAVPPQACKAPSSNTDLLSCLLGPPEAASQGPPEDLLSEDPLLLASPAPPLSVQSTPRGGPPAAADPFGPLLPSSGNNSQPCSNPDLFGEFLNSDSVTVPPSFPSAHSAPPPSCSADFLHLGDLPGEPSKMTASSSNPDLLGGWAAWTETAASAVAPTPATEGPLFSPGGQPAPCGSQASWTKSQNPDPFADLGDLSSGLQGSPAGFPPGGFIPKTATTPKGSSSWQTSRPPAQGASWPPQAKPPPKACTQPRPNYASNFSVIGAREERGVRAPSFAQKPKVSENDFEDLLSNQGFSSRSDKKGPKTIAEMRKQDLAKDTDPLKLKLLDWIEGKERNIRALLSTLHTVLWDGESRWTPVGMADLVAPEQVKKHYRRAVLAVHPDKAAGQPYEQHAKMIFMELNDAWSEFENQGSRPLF
Numbers only, in K.

> print(dat)
                                item.smiles  observable  reading.unit  observed
1  Cc1cc(Cl)c(Cl)cc1-c1cnc2nc1NCCCNS(=O)(=O)c1cccc(c1)N2     deltaTm             K       4.9
2  COc1cc(-c2cnc3nc2NCCCNS(=O)(=O)c2cccc(c2)N3)cc(C(F)(F)F)c1     deltaTm             K       3.3
3  COc1cc(-c2cnc3nc2NCCCNS(=O)(=O)c2cc(ccc2OCC(N)=O)N3)ccc1F     deltaTm             K       6.3
4  CC(C)Oc1cc(-c2cnc3nc2NCCCNS(=O)(=O)c2cccc(c2)N3)ccc1F     deltaTm             K       1.6

Report deltaTm for each item below.
1. COc1cc(-c2cnc3nc2NCCCNS(=O)(=O)c2cccc(c2)N3)cc(OC)c1OC
2. O=S1(=O)NCCCNc2nc(ncc2-c2ccc(Cl)c(Cl)c2)Nc2cccc1c2
3. COc1cc(-c2cnc3nc2NCCCNS(=O)(=O)c2cc(ccc2-c2ccc(O)cc2)N3)ccc1F
4. O=S1(=O)NCCCNc2nc(ncc2-c2cc(Cl)c(F)cc2F)Nc2cccc1c2
5. COc1cc(-c2cnc3nc2NCCCNS(=O)(=O)c2cc(ccc2Cl)N3)ccc1F
6. COC(=O)COc1ccc2cc1S(=O)(=O)NCCCNc1nc(ncc1-c1ccc(F)c(OC)c1)N2
7. O=S1(=O)NCCCNc2nc(ncc2-c2ccc(F)c(C(F)(F)F)c2)Nc2cccc1c2
8. O=S1(=O)NCCCNc2nc(ncc2-c2ccc(F)c(Cl)c2)Nc2cccc1c2

Solution:
1. 5.9
2. 3.6
3. 3.6
4. 5.8
5. 8.1
6. 3.7
7. 3.1
8. 6.3

---

assayed target: Ephrin type-A receptor 4 (Homo sapiens, UniProt P54764)
Sequence (P54764 whole entry): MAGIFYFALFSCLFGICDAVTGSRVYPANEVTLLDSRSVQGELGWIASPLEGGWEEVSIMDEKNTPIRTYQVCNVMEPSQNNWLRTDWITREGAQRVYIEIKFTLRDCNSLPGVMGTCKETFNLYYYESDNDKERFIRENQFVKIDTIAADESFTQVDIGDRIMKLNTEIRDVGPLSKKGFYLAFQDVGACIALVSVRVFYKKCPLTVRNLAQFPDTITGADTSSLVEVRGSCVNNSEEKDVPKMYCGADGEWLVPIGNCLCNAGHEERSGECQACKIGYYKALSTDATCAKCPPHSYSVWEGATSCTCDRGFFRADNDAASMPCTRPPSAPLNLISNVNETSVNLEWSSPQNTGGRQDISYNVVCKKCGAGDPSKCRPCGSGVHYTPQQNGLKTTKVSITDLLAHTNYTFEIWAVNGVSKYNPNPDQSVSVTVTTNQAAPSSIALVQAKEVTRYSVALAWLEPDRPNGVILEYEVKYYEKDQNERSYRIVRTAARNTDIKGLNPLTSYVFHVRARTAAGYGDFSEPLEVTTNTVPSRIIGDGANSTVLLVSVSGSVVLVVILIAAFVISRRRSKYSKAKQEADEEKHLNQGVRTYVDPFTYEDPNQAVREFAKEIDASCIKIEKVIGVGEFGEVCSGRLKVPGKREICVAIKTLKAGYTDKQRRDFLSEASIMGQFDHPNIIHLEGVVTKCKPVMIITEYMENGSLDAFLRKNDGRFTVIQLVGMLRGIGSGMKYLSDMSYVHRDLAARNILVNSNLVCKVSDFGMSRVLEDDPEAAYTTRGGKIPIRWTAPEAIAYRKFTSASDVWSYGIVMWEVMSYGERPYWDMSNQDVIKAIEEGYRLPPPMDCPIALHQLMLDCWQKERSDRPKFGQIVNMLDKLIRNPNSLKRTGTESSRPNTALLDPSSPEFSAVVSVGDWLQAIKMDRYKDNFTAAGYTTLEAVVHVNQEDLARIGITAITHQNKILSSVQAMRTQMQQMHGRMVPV
assay info: Induction of stabilization of recombinant EPHA4 (unknown origin) assessed as change in melting temperature by differential scanning fluorimetry assay
observable: deltaTm (K)
Numbers only, in K.

> print(dat)
                                item.smiles  observed
1  O=S1(=O)NCCCNc2nc(ncc2-c2ccc(F)c(O)c2)Nc2cccc1c2       2.9
2  COc1cc(-c2cnc3nc2NCCCNS(=O)(=O)c2cccc(c2)N3)ccc1F       3.6
3  COc1cc(-c2cnc3nc2NCCCNS(=O)(=O)c2cc(ccc2OCCN2CCOCC2)N3)ccc1F       3.7

Report deltaTm for each item below.
1. COc1cc(-c2cnc3nc2NCCCNS(=O)(=O)c2cccc(c2)N3)c(F)cc1Cl
2. COc1cc(-c2cnc3nc2NCCCNS(=O)(=O)c2cc(ccc2Cl)N3)ccc1F

Solution:
1. 4.7
2. 5.1
